Sequence of the target: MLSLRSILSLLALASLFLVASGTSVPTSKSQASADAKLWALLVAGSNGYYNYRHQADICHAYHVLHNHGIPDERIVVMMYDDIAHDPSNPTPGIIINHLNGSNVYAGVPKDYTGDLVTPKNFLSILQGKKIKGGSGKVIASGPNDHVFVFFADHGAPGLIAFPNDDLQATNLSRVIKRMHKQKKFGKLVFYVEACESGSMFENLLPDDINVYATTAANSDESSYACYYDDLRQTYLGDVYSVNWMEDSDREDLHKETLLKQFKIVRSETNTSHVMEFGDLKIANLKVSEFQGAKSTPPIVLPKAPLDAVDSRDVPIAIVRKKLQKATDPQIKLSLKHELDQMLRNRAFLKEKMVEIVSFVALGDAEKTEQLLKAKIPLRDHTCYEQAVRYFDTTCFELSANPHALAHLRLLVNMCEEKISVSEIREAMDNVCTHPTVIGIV
PROPERTY MEASURED: log10 of IC50 (log10 of the value in nM)

>>> observed_value("CCCCN(CCCC)C(=O)C=CC(=O)N(CC(N)=O)NC(=O)[C@H](C)NC(=O)[C@H](C)NC(=O)OCc1ccccc1")
2.00
>>> observed_value("C[C@H](NC(=O)OCc1ccccc1)C(=O)N[C@@H](C)C(=O)NN(CC(N)=O)C(=O)C=Cc1ccco1")
3.88
>>> observed_value("C[C@H](NC(=O)OCc1ccccc1)C(=O)N[C@@H](C)C(=O)NN(CC(N)=O)C(=O)C=CC(=O)NCc1ccccc1")
2.30
>>> observed_value("C[C@H](NC(=O)OCc1ccccc1)C(=O)N[C@@H](C)C(=O)NN(CC(N)=O)C(=O)C=CC(=O)N1CC=C(c2ccccc2)CC1")
1.93
>>> observed_value("C[C@H](NC(=O)OCc1ccccc1)C(=O)N[C@@H](C)C(=O)NN(CC(N)=O)C(=O)C=CC(=O)N(Cc1ccccc1)Cc1cccc2ccccc12")
0.78
